- Assay Details: enhancers of RGS4 function in calcium signaling – cell-based, HEK293 M3R inducible RGS4, calcium flux, primary screen (AID 463111)
- Applied Conditions: HEK293 M3R/inducible RGS4, carbachol calcium flux Fluo4, at 10 µM
About 2,800 (0.9%) of roughly 310,000 compounds were called active.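 Rule for the calls: active = B-score of the integrated calcium signal more than 4 SD below the library mean, with starting fluorescence not abnormally high; inactive = the rest.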 The full list was thinned out, with actives kept by preference.
Valid outcomes are listed here; reply with one: label 1 for active, label 0 for inactive

Input: What is the recorded call for this compound in the test? COC(=O)c1cc2nc(-c3ccccc3)cc(C(F)(F)F)n2n1
Output: label 0

Input: Give the logged outcome of this assay for the following compound: CCCCCCCCCCOC(=O)Cn1c(COc2ccc(C)cc2)[n+](C)c2ccccc21
Output: label 1

Input: Please let me know the test result on file for Cc1cc(Cl)ccc1OCc1nc(-c2ccncc2)no1 .
Output: label 0

Input: How was O=C(O)c1ccc(Cn2c(=S)[nH]c3cc(Cl)ccc3c2=O)cc1 classified in this test?
Output: label 0

Input: How did this test come out for COCCNc1cc(-c2ccccc2)nc2cc(-c3cccc(F)c3)nn12 ?
Output: label 1

Input: # lookup: test call for CCCCCCCCCCOC(=O)Cn1c(COc2cccc(OC)c2)[n+](C)c2ccccc21
Output: label 0

Input: I would be grateful if you could indicate the recorded call for c1ccc2c(c1)CSc1sccc1C2=C1CCNCC1 .
Output: label 1

Input: Per the assay record, what outcome was assigned to COc1ccc(NC(=O)c2cc3nc(-c4ccccc4)cc(C)n3n2)cc1OC ?
Output: label 0

Input: Outcome? CCCOc1ccc(C2c3c(oc4cc(C)c(C)cc4c3=O)C(=O)N2CCCN2CCOCC2)cc1 (configuration not stated)
Output: label 0

Input: Could you please tell me the result logged for CCCCCOc1ccc(CSC2=NCCN2)cc1[N+](=O)[O-] in this assay?
Output: label 0

Input: For this compound, state the assay outcome: Cc1ccc(OCCCn2c(=O)oc3ccccc32)cc1
Output: label 0

Input: State the result this test recorded for CC(C)c1ccc2c(c1)c(SC(C)(C)C)c(CC(C)(C)C(=O)O)n2Cc1ccc(Cl)cc1 .
Output: label 1

Input: Called result for FC(F)(F)c1cccc(-c2nc(COc3ccc(Cl)cc3Cl)no2)c1
Output: label 1

Input: Recorded call for COc1cc(NC(=S)NCCSc2ccc(C)cc2)cc(OC)c1 ?
Output: label 0

Input: Which outcome was entered for the compound Cc1cc2c(cc1S(=O)(=O)CCC(=O)NCc1ccccc1)OCC(=O)N2 in this test?
Output: label 0

Input: Give the logged outcome of this assay for the following compound: C[N+](C)(C)CCNC(=O)c1cc[n+](Cc2ccccc2)c(/C=N/O)c1
Output: label 0

Input: Recorded call for FC(F)(F)c1cnc(Oc2ccccc2-c2nnc(-c3ccc(Cl)cc3)o2)c(Cl)c1 ?
Output: label 0

Input: Assay result, entry CCCCOc1ccc(CSC(=N)N)cc1[N+](=O)[O-] — outcome?
Output: label 1

Input: What was the test verdict on CCc1cccc(CC)c1NC(=O)COc1ccccc1C(=O)c1cc(C#N)c(=O)n(C2CCCCC2)c1 ?
Output: label 0

Input: Per the records of this test, what outcome belongs to O=C(O)CC(SCC(=O)Nc1ccc(Br)cc1)C(=O)O (configuration not stated) ?
Output: label 0

Input: Give the logged outcome of this assay for the following compound: Cc1cccc2c1-c1sc(C(=O)NCCCN3CCc4ccccc4C3)cc1CO2
Output: label 1

Input: Please state the recorded outcome for this compound: COc1ccc(Cl)cc1NC(=O)CCS(=O)(=O)c1cc2c(cc1C)NC(=O)CO2
Output: label 1
